# protocol.text: qHTS RealTime-Glo MT Cell Viability Assay in HepG2 cells - 40 hour (AID 1224870); note: nearly all actives have a fitted effect of over 50% in size
# condition.summary: RealTime-Glo luminescence; series mostly up to 76.8 µM
Results filed as inconclusive are left out. Active and inactive are the calls of the source. Calls come from the whole dose curve; as a rule, active = well fitted cell-killing curve with a large enough effect in the repeat runs; inconclusive = weak or mixed curves, or effect the other way; inactive = flat fitted curve, though single readings scatter.
Labels: yes (1) for active, no (0) for inactive

>>> category("COc1c(Cl)c(Cl)c(Cl)c(Cl)c1Cl")
"no (0)"
>>> category("O=C(OCc1ccccc1)c1ccccc1O")
"no (0)"
>>> category("C[C@]12CC[C@H]3[C@@H](CCC4=CC(=O)CC[C@@]43C)[C@@H]1CC[C@@H]2C(=O)CO")
"no (0)"
>>> category("Cc1ccc(C(=O)c2cc(O)c(O)c([N+](=O)[O-])c2)cc1")
"no (0)"
>>> category("CCCCC(CC)COP(=O)(OCC(CC)CCCC)OCC(CC)CCCC (stereo not drawn)")
"no (0)"
>>> category("CCCCC/C=C/C=C/C=O")
"no (0)"
>>> category("NNc1ccc(C(=O)O)cc1")
"no (0)"
>>> category("COC(=O)C1=C(C)NC(C)=C(C(=O)OCCN(C)Cc2ccccc2)C1c1cccc([N+](=O)[O-])c1 (stereo not drawn)")
"yes (1)"
>>> category("Cc1cccc(C(=O)O)c1")
"no (0)"
>>> category("O=C1c2cccc(O)c2C(=O)c2c(O)cccc21")
"no (0)"
>>> category("Cc1ncc[nH]1")
"no (0)"
>>> category("CCCCNS(=O)(=O)c1ccccc1")
"no (0)"
>>> category("CC(=O)O[C@]1(C(C)=O)CC[C@H]2[C@@H]3C=C(Cl)C4=CC(=O)[C@@H]5C[C@@H]5[C@]4(C)[C@H]3CC[C@@]21C")
"no (0)"
>>> category("CCCCOCCOCCOCCO")
"no (0)"
>>> category("CC(=O)c1ccccn1")
"no (0)"
>>> category("Cn1cnc([N+](=O)[O-])c1Sc1ncnc2nc[nH]c12")
"no (0)"
>>> category("NC=O")
"no (0)"
>>> category("O=P(O)(O)O")
"no (0)"
>>> category("Cc1c(OCC(F)(F)F)ccnc1CS(=O)c1nc2ccccc2[nH]1 (stereo not drawn)")
"no (0)"
>>> category("Cc1[nH]c(=O)c(C#N)cc1-c1ccncc1")
"no (0)"
>>> category("CC(CCC(=O)O)(c1ccc(O)cc1)c1ccc(O)cc1")
"no (0)"
>>> category("Nc1ccc(Nc2ccccc2)cc1")
"no (0)"
>>> category("O=C(COc1ccc(Cl)cc1)N1CCN(Cc2ccc3c(c2)OCO3)CC1")
"no (0)"
>>> category("O=C(c1ccccc1)c1ccccc1O")
"no (0)"
>>> category("O=C(O)c1ccccc1Nc1cccc(C(F)(F)F)c1")
"no (0)"
>>> category("CCC(C)c1ccccc1O (stereo not drawn)")
"no (0)"
>>> category("CCC(C)(O)CCCC(C)C (stereo not drawn)")
"no (0)"
>>> category("C/C=C/C(=O)O")
"no (0)"

---

# protocol.text: qHTS assay to identify small molecule agonists of the estrogen related receptor (ERR) signaling pathway from Tox21 library (AID 1224849); note: % is set by controls: 0 for no effect and ±100 for the full control effect; nearly all actives have a fitted effect of over 15% in size
# condition.summary: ERR reporter cell line, ONE-Glo luciferase, 18 h; at 92.4 µM (top of the series)
# Experimental: National Center for Advancing Translational Sciences [NCATS] NIH Chemical Genomics Center [NCGC] U.S. Environmental Protection Agency [EPA] National Institutes of Environmental Health Sciences [NIEHS] National Toxicology Program [NTP] […] The ERR cells were dispensed at 2,000 cells/5 ul/well in 1536-well white plates using a Multidrop dispenser. […] After 30-minute incubation at room temperature, the luminescence intensity in the plates was measured using a ViewLux plate reader.
Measured activity change, positive = activation by item
measurement.name: activity change, positive = activation (%)

>>> numeric_value("O=C1c2cccc(O)c2C(=O)c2c(O)cccc21")
-20.9
>>> numeric_value("CCOC(=O)C(C#N)=C(c1ccccc1)c1ccccc1")
-34.2
>>> numeric_value("O=C=Nc1ccc(Cc2ccc(N=C=O)cc2)cc1")
-19.6
>>> numeric_value("Cc1ccc(C(=O)c2cc(O)c(O)c([N+](=O)[O-])c2)cc1")
-70.9
>>> numeric_value("CC(C(=O)O)c1cccc(C(=O)c2ccccc2)c1 (configuration not stated)")
2.6
>>> numeric_value("Nc1ccc(Cl)cc1Cl")
1.8
>>> numeric_value("COc1ccc(OC)c(C(O)CNC(=O)CN)c1 (configuration not stated)")
-28
>>> numeric_value("O=C(COc1ccc(Cl)cc1)N1CCN(Cc2ccc3c(c2)OCO3)CC1")
-59.3
>>> numeric_value("Nc1ncn([C@@H]2O[C@H](CO)[C@@H](O)[C@H]2O)c(=O)n1")
-55.9
>>> numeric_value("O=C1OC2(c3cc(Br)c(O)c(Br)c3Oc3c2cc(Br)c(O)c3Br)c2c(Cl)c(Cl)c(Cl)c(Cl)c21")
-28
>>> numeric_value("C[C@]12CC[C@H]3[C@@H](CCC4=CC(=O)CC[C@@]43C)[C@@H]1CC[C@@H]2C(=O)CO")
-55.9
>>> numeric_value("C#C[C@]1(O)CC[C@H]2[C@@H]3CCc4cc(OC)ccc4[C@H]3CC[C@@]21C")
-15.3

---

# protocol.text: A CellTox Green Cytotoxicity Assay to monitor cytotoxicity in HEK293 cells - 8 hour (AID 1224884); note: nearly all actives have a fitted effect of over 35% in size
# condition.summary: CellTox Green fluorescence; series mostly up to 76.8 µM
# Source text: National Center for Advancing Translational Sciences [NCATS] NIH Chemical Genomics Center [NCGC] U.S. Environmental Protection Agency [EPA] National Institutes of Environmental Health Sciences [NIEHS] National Toxicology Program [NTP] Cell-based models are critical for drug discovery. […] Viable cells produce no appreciable increases in fluorescence. Therefore, the fluorescence signal produced by the binding interaction with dead cell DNA is proportional to cytotoxicity. […]
Inconclusive results are not listed. Active and inactive are the calls of the source. The call rests on the fitted dose curve; in most records, active means well fitted activation curve with a large enough effect in the repeat runs; inconclusive means weak or mixed curves; inactive means flat fitted curve, though single readings scatter.
Possible outcomes: 1.0 = active, 0.0 = inactive

>>> category("CCCCC(CC)COC(=O)c1ccc(N(C)C)cc1 (stereo not drawn)")
0.0
>>> category("O=C(Nc1ccc([N+](=O)[O-])cc1Cl)c1cc(Cl)ccc1O")
0.0
>>> category("Nc1ncn([C@@H]2O[C@H](CO)[C@@H](O)[C@H]2O)c(=O)n1")
0.0
>>> category("COC(=O)C1=C(C)NC(C)=C(C(=O)OCCN(C)Cc2ccccc2)C1c1cccc([N+](=O)[O-])c1 (stereo not drawn)")
0.0
>>> category("Nc1ncnc2nc[nH]c12")
0.0
>>> category("O=c1oc(=O)c2cc3c(=O)oc(=O)c3cc12")
0.0
>>> category("OC[C@H]1O[C@@H]2O[C@H]3[C@H](O)[C@@H](O)[C@@H](O[C@H]4[C@H](O)[C@@H](O)[C@@H](O[C@H]5[C@H](O)[C@@H](O)[C@@H](O[C@H]6[C@H](O)[C@@H](O)[C@@H](O[C@H]7[C@H](O)[C@@H](O)[C@@H](O[C@H]8[C@H](O)[C@@H](O)[C@@H](O[C@H]1[C@H](O)[C@H]2O)O[C@@H]8CO)O[C@@H]7CO)O[C@@H]6CO)O[C@@H]5CO)O[C@@H]4CO)O[C@@H]3CO")
0.0
>>> category("Nc1ccccc1N")
1.0
>>> category("C[Si](C)(C)O[Si](C)(C)C")
0.0
>>> category("O=C1c2cccc(O)c2C(=O)c2c(O)cccc21")
0.0
>>> category("Cn1cnc([N+](=O)[O-])c1Sc1ncnc2nc[nH]c12")
0.0
>>> category("COC(=O)c1ccccc1")
0.0
>>> category("O=C(OCc1ccccc1)c1ccccc1O")
0.0
>>> category("CC(=O)Oc1ccccc1C(=O)Nc1ncc([N+](=O)[O-])s1")
0.0
>>> category("CCC(C)c1ccccc1O (stereo not drawn)")
0.0
>>> category("CN(C)CCN(Cc1cccs1)c1ccccn1")
0.0
>>> category("Brc1cc(Oc2cc(Br)c(Br)c(Br)c2Br)c(Br)c(Br)c1Br")
0.0
>>> category("c1ccc2c(c1)Oc1ccccc1S2")
0.0
>>> category("CCCCOCCOCCOCCO")
0.0
>>> category("CC(CCC(=O)O)(c1ccc(O)cc1)c1ccc(O)cc1")
0.0
>>> category("O=S(=O)(O)c1ccc(O)cc1")
0.0
>>> category("Nc1ccc(Nc2ccccc2)cc1")
0.0
>>> category("COc1cc([C@@H]2c3cc4c(cc3[C@H](O)[C@H]3COC(=O)[C@H]23)OCO4)cc(OC)c1OC")
0.0
>>> category("CCCCNS(=O)(=O)c1ccccc1")
0.0
>>> category("CC(C)OB(OC(C)C)OC(C)C")
0.0
>>> category("c1ccc2cc(Nc3ccc(Nc4ccc5ccccc5c4)cc3)ccc2c1")
0.0
>>> category("S=C(NC1CCCCC1)NC1CCCCC1")
0.0
>>> category("C#C[C@]1(O)CC[C@H]2[C@@H]3CCc4cc(OC)ccc4[C@H]3CC[C@@]21C")
0.0
>>> category("CCC(C)CO (stereo not drawn)")
0.0
>>> category("Cc1cccc(N(C)C(=S)Oc2ccc3ccccc3c2)c1")
0.0
>>> category("c1cc(N(CC2CO2)CC2CO2)ccc1OCC1CO1 (stereo not drawn)")
0.0
>>> category("O=CCCCC=O")
0.0
>>> category("Cc1ccc(C)c(O)c1C")
0.0
